meta.source: patent US20100168097A1

- study_target: mutant HIV reverse transcriptase, K103N mutation (Human immunodeficiency virus type 1 group M subtype B, UniProt P04585, K690N)
- Construct: made in house
- assay_procedure: Analogous RT inhibition assay, K103N mutant
- Assay type: biochemical
pIC50: −log10 of the molar value.
Collected pIC50 values appear next to each entry.

Solved entries (count: 3):
INSERT INTO assay_data (compound, val) VALUES
  ('Cc1cnc(-c2[nH]c3ccc(Cl)cc3c2S(=O)(=O)CC2CCC2)[nH]1 [Example 34]', '< 5.52'),
  ('CCC(CC)S(=O)(=O)c1c(-c2ncc(C)[nH]2)[nH]c2ccc(Cl)cc12 [Example 37]', '< 5.00'),
  ('COCc1nc(-c2[nH]c3ccc(Cl)cc3c2S(=O)(=O)c2ccccc2)no1 [Example 1]', '< 4.70');

Problem: Consider the compound shown here: Cc1cnc(-c2[nH]c3ccc(Cl)cc3c2S(=O)(=O)C2CCCC2)[nH]1 [Example 35] What is its recorded pIC50?
Solution: > 6.00

---

Collected IC50 values appear next to each entry.
- study_target: mutant HIV reverse transcriptase, Y181C mutation (Human immunodeficiency virus type 1 group M subtype B, UniProt P04585, Y768C)
- Construct: made in house
- assay_procedure: Analogous RT inhibition assay, Y181C mutant
- Format: biochemical

Solved entries (count: 4):
INSERT INTO assay_data (compound, val) VALUES
  ('Cc1cnc(-c2[nH]c3ccc(Br)cc3c2S(=O)(=O)N2CCCC2)[nH]1', '< 1 µM'),
  ('O=S(=O)(c1c(-c2nc(-c3ccc(N4CCOCC4)cc3)c[nH]2)[nH]c2ccc(Br)cc12)N1CCCC1', '> 20 µM'),
  ('N#Cc1ccc(-c2c[nH]c(-c3[nH]c4ccc(Br)cc4c3S(=O)(=O)N3CCCC3)n2)cc1', '> 20 µM'),
  ('COC(=O)c1cc(-c2c[nH]c(-c3[nH]c4ccc(Br)cc4c3S(=O)(=O)N3CCCC3)n2)ccc1O', '> 20 µM');

Problem: Consider the compound shown here: O=S(=O)(c1ccccc1)c1c(-c2noc(-c3ccncc3)n2)[nH]c2ccc(Cl)cc12 What is its recorded IC50?
Solution: 1 to 20 µM

Problem: Consider the compound shown here: O=S(=O)(c1c(-c2nc3ccccc3[nH]2)[nH]c2ccc(Br)cc12)N1CCCC1 What is its recorded IC50?
Solution: < 1 µM

---

Collected IC50 values appear next to each entry.
- study_target: mutant HIV reverse transcriptase, Y181C mutation (Human immunodeficiency virus type 1 group M subtype B, UniProt P04585, Y768C)
- Construct: made in house
- assay_procedure: Analogous RT inhibition assay, Y181C mutant
- Format: biochemical
- Procedure: 100 μL reaction mixtures were initiated with a combination of primer-template substrate (10 nM final concentration) and dNTPs (0.6 μM dNTPs, 0.75 μM [^3H]-dGTP). […] Microtiter plates were incubated an additional 10 minutes at 37° C. prior to quantification via Topcount (Packard). […]

Problem: Consider the compound shown here: O=[N+]([O-])c1ccc(-c2c[nH]c(-c3[nH]c4ccc(Br)cc4c3S(=O)(=O)N3CCCC3)n2)cc1 [Example 32] What is its recorded IC50?
Solution: 1 to 20 µM

---

- study_target: mutant HIV reverse transcriptase, Y181C mutation (Human immunodeficiency virus type 1 group M subtype B, UniProt P04585, Y768C)
- Construct: made in house
- assay_procedure: Analogous RT inhibition assay, Y181C mutant
- Type: biochemical
pIC50: −log10 of the molar value.
Collected pIC50 values appear next to each entry.

Solved entries (count: 2):
INSERT INTO assay_data (compound, val) VALUES
  ('O=S(=O)(c1c(-c2nc([C@H](O)[C@@H](O)[C@@H](O)CO)c[nH]2)[nH]c2ccc(Br)cc12)N1CCCC1 [Example 18]', '4.70 to 6.00'),
  ('COCc1nc(-c2[nH]c3ccc(Cl)cc3c2S(=O)(=O)c2ccccc2)no1 [Example 1]', '< 4.70');

Then there is this compound:
Problem: Consider the compound shown here: CCC(OC)c1cnc(-c2[nH]c3ccc(Br)cc3c2S(=O)(=O)N2CCCC2)[nH]1 (stereo not drawn) [Example 21] What is its recorded pIC50?
Solution: 4.70 to 6.00
